Biological target: human M4 muscarinic acetylcholine receptor (Homo sapiens)
Construct: expressed in transfected cells
Sequence (P08173 whole entry): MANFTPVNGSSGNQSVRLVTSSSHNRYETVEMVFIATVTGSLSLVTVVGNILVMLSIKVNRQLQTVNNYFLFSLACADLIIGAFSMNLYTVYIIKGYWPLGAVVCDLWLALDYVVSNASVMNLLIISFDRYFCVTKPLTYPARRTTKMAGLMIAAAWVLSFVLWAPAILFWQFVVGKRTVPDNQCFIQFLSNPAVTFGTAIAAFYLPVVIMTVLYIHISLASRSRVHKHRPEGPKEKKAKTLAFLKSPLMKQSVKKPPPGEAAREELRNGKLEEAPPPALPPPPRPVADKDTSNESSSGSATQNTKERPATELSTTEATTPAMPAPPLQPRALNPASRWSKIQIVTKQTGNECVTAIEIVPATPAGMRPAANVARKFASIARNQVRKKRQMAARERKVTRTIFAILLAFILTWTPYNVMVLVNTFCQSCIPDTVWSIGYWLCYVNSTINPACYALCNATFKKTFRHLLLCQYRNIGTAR
Assay: human FLIPR-based M4 PAM assay (CHO-K1 cells with human M4 receptor and Gαqi5, calcium dye fluorescence)
Type: cell-based
Settings: inflection point of 4 parameter logistic fit; acetylcholine added at 20% of maximum response; read-out: M4PAM IP
Reported EC50 values are given for each entry in this list.
// units = nM; emit number, no label

// worked examples, EC50 included
Requested read-out: EC50. Entry: "Cc1ccc(-c2cnn(CC3(C)CCCCC3)c2)c(-c2ccc3cn(C)nc3c2)n1"
76

And for "CC(C)(C)Cn1cc(-c2ccc(C#N)nc2-c2ccn3nc(CO)nc3c2)cn1" ?
126

And for "CC(C)(C)Cn1cc(-c2ccc(OC(F)(F)F)nc2-c2ccn3ccnc3c2)cn1" ?
211

And for "Cn1nc2ccc(-c3nc(C#N)ccc3-c3cnn(CC(C)(C)C)c3)cc2n1" ?
243

And for "CC(C)(C)Cn1cc(-c2ccc(C#N)nc2-c2ccn3cc(C(F)(F)F)nc3c2)cn1" ?
54.4

And for "CC(C)C(F)(F)Cn1cc(-c2ccc(C#N)nc2-c2ccn3ccnc3c2)cn1" ?
30.7

And for "CN1Cc2ccc(-c3nc(C#N)ccc3-c3cnn(CC4(C)CC4)c3)cc2C1=O" ?
51.2

Now let's try a different one.
Requested read-out: EC50. Entry: "CC(C)(C)Cn1cc(-c2ccc(C#N)nc2-c2ccn3ccnc3c2)cn1"
29.7

This collection of values is drawn from patent US11339156B2.
